Tgt: T1, ubiquitin mutein 77404
T1 construct: also called Affilin-77404
Protocol text: SPR (Biacore 3000), ligand multimer immobilised, ubiquitin mutein in solution
Parameter: pKd
One number for each entry, as −log10 of the molar value.

Some binders with known pKd results, for comparison:
{"Binder": "SEQ 21 tetramer (215998) (designed binder) NAARSDEAQYSAWAEIEALPNLTEMQKDQFIWSLMFDPSVSKEVLGEAQKLNDSQAPKQAPKVDAKFDQAPKVDAKFDNAARSDEAQYSAWAEIEALPNLTEMQKDQFIWSLMFDPSVSKEVLGEAQKLNDSQAPKQAPKVDAKFDQAPKVDAKFDNAARSDEAQYSAWAEIEALPNLTEMQKDQFIWSLMFDPSVSKEVLGEAQKLNDSQAPKQAPKVDAKFDQAPKVDAKFDNAARSDEAQYSAWAEIEALPNLTEMQKDQFIWSLMFDPSVSKEVLGEAQKLNDSQAPKC", "pKd": 10.30}
{"Binder": "SEQ21 dimer (215996) (designed binder) NAARSDEAQYSAWAEIEALPNLTEMQKDQFIWSLMFDPSVSKEVLGEAQKLNDSQAPKQAPKVDAKFDQAPKVDAKFDNAARSDEAQYSAWAEIEALPNLTEMQKDQFIWSLMFDPSVSKEVLGEAQKLNDSQAPKC", "pKd": 9.80}
{"Binder": "SEQ1 trimer (216000) (designed binder) NAAMDDFAQYSAWAEIEALPNLTEMQKDQFIWSLMFDPSVSKEVLGEAQKLNDSQAPKQAPKVDAKFDQAPKVDAKFDNAAMDDFAQYSAWAEIEALPNLTEMQKDQFIWSLMFDPSVSKEVLGEAQKLNDSQAPKQAPKVDAKFDQAPKVDAKFDNAAMDDFAQYSAWAEIEALPNLTEMQKDQFIWSLMFDPSVSKEVLGEAQKLNDSQAPKC", "pKd": 9.52}

[Q] Entry under review: SEQ1 dimer (215999) (designed binder) NAAMDDFAQYSAWAEIEALPNLTEMQKDQFIWSLMFDPSVSKEVLGEAQKLNDSQAPKQAPKVDAKFDQAPKVDAKFDNAAMDDFAQYSAWAEIEALPNLTEMQKDQFIWSLMFDPSVSKEVLGEAQKLNDSQAPKC . Reported pKd?
[A] 10.00
